Recorded values, source ChEMBL document CHEMBL1142571.

# System: Leishmania mexicana
# Assay text: Antileishmanial activity against Leishmania mexicana MNYC/BZ/62/M379 infected in C57BL/6 mouse peritoneal macrophages assessed as reduction in infection at 12.5 ug/ml after 72 hrs relative to control
# Format: functional
# Parameters: scale not given: the % may be the effect or the level left
Activity: recorded values
Assay endpoint: Activity

1. COc1c(C)c(O)c(C)c(O)c1C(=O)/C=C/c1ccccc1 :: 96%
2. O=C1C[C@@H](c2ccc(O)c(O)c2)Oc2cc(O)cc(O)c21 [ERIODICTYOL] :: 30%
3. COc1c(C)c(O)c(C)c(O)c1C(=O)/C=C/c1ccccc1O :: 96%
4. COC1=C(C)C(=O)C(C)(C)C(=O)/C1=C1\C=Cc2ccccc2O1 [DALRUBONE] :: 41%

----------
# System: J774.A1
# Assay text: Cytotoxicity against mouse J774A1 cells after 72 hrs by cell-titer assay
# Type: cell-based
# Condition: J774.A1, 72 h
I'd appreciate it if you marked entries Criterion met when IC50 is lower than 10 µg/mL and Criterion not met when it is not.

1) COC1=C(C)C(=O)C(C)(C)C(=O)/C1=C1\C=Cc2ccccc2O1 :: Criterion not met
2) Cc1c(O)c(C)c2c(c1O)C(=O)C[C@@H](c1ccccc1)O2 :: Criterion not met
3) O=C1C[C@@H](c2ccc(O)c(O)c2)Oc2cc(O)cc(O)c21 :: Criterion not met
4) N=C(N)c1ccc(OCCCCCOc2ccc(C(=N)N)cc2)cc1 :: Criterion not met
5) COc1c(C)c(O)c(C)c(O)c1C(=O)/C=C/c1ccccc1O :: Criterion met
6) COc1c(C)c(O)c(C)c(O)c1C(=O)/C=C/c1ccccc1 :: Criterion met
